Quick list: GI50 per entry.
test system: SK-MEL-5; assay: NCI tumour cell line growth inhibition, 48 h
Calls of active or inactive are those of the source. Rule as the data show it: active = GI50 up to about 1.1 µM and inactive = higher.

| compound | assay-target | GI50 |
| --- | --- | --- |
| CC1(C)N=C(N)N=C(N)N1c1cccc(OCCOc2ccc([N+](=O)[O-])cc2)c1 | SK-MEL-5 | 69.5 µM (inactive) |
| CCOc1ccc(NC(=O)CC#N)cc1 | SK-MEL-5 | > 100 µM (inactive) |
| COc1cc(COC(=O)N(C)[C@@H](Cc2ccccc2)C(=O)O)c([N+](=O)[O-])cc1OC | SK-MEL-5 | > 100 µM (inactive) |
| N#Cc1nc(CCC(c2nc(C#N)c(N)o2)N2C(=O)c3ccccc3C2=O)oc1N (stereo not given) | SK-MEL-5 | > 100 µM (inactive) |
| CCOP(=O)(OCC)/C(C#N)=C/c1cccn1CC(C)C | SK-MEL-5 | 40.9 µM (inactive) |
